Reference source: the CATMoS acute toxicity set (Mansouri et al. 2021)

test: GHS categories as the set defines them, by LD50: 1 up to 5, 2 up to 50, 3 up to 300, 4 up to 2000, 5 above 2000 mg/kg; conditions: rat; in vivo; po
property measured: GHS category

CCCNC(=O)c1cnc2cccc(C)n2c1=O :: 3
C=CCCCCCCCCCO :: 5
COC(=O)c1ccc(C(=O)O)cc1[N+](=O)[O-] :: 5
ClC1=C(Cl)C2(Cl)C3COCC3C1(Cl)C2(Cl)Cl (centres undefined) :: 5
CCCCCCCC(=O)OCCC(C)C :: 5
CC(=O)S[C@@H]1CC2=CC(=O)CC[C@]2(C)[C@H]2CC[C@@]3(C)[C@@H](CC[C@@]34CCC(=O)O4)[C@H]12 :: 4
CO/N=C(/C(=O)N[C@@H]1C(=O)N2C(C(=O)O)=C(CSc3cnns3)CS[C@H]12)c1csc(N)n1 :: 5
CC12CCC3c4ccc(OC(=O)c5ccccc5)cc4CCC3C1CCC2OC(=O)CO (centres undefined) :: 5
NS(=O)(=O)c1cc(C2(O)NC(=O)c3ccccc32)ccc1Cl (centres undefined) :: 5
O=C(O)c1cc(O)c2c3nc4ccccc4oc-3cc(=O)c2n1 :: 5
CC(C)(C)C1=CC(=Cc2ccccc2)C=C(C(C)(C)C)C1=O :: 5
CC(C)C(=O)OCCOc1ccccc1 :: 5
CCN(C(=O)Oc1cccc(NC(=O)OC(C)C)c1)c1ccccc1 :: 5
CO[Si](CCCCl)(OC)OC :: 5
CC(CCO)CC(C)(C)C (centres undefined) :: 5
O=S(=O)(O)Oc1ccc(C(c2ccc(O)cc2)c2ccccn2)cc1 (centres undefined) :: 5
CC/C=C\CCOC(=O)C/C=C\CC :: 5
CN/C(=N\[N+](=O)[O-])NCc1cnc(Cl)s1 :: 5
COc1ccc(Cl)cc1C(=O)NCCc1ccc(S(=O)(=O)NC(=O)NC2CCCCC2)cc1 :: 5
CCCCC(CC)COC(=O)C1CCC(C(=O)OCC(CC)CCCC)CC1 (centres undefined) :: 5
CC1(C)S[C@@H]2[C@H](NC(=O)C(C(=O)O)c3ccccc3)C(=O)N2[C@H]1C(=O)O (some centres undefined) :: 5
CC[C@H](C)[C@@H]1NC(=O)[C@H](Cc2ccc(O)cc2)NC(=O)[C@@H](N)CSSC[C@@H](C(=O)N2CCC[C@H]2C(=O)N[C@@H](CC(C)C)C(=O)NCC(N)=O)NC(=O)[C@H](CC(N)=O)NC(=O)[C@H](CCC(N)=O)NC1=O :: 2
CC(C)CCC[C@@H](C)[C@H]1CC[C@H]2[C@@H]3CC[C@H]4C[C@H](O)CC[C@]4(C)[C@H]3CC[C@]12C :: 4
COC(=O)c1ccc(CNS(C)(=O)=O)cc1S(=O)(=O)NC(=O)Nc1nc(OC)cc(OC)n1 :: 5
CC(C)OC(=O)CCC(=O)OC(C)C :: 5
O=S(=O)(O)c1ccc(/N=N/c2c(O)ccc3cc(S(=O)(=O)O)ccc23)cc1 :: 5
C=C(C)C(=O)OCCc1ccccc1 :: 5
C[C@@H](O)[C@H]1C(=O)N2C(C(=O)O)=C(SCCNC=N)C[C@H]12 :: 5
CCCc1nc(C)c2c(=O)nc(-c3cc(S(=O)(=O)O)ccc3OCC)[nH]n12 :: 5
CC(C)(CO)C1OCC2(CO1)COC(C(C)(C)CO)OC2 (centres undefined) :: 5
COC(=O)c1ccc2c(c1)NC(=O)C2 :: 5
O=C1CN=C(c2ccccc2Cl)c2cc([N+](=O)[O-])ccc2N1 :: 5
CCOC(=O)COc1cc(-c2nn(C)c(OC(F)F)c2Cl)c(F)cc1Cl :: 5
CCCNC(=O)c1cnc2cc(C)ccn2c1=O :: 3
COC12CC(COC3=CC(=O)CC3)CN(C)C1Cc1cn(C(C)(C)C)c3cccc2c13 (centres undefined) :: 4
Cc1cc(C(=O)NCCc2ccc(S(=O)(=O)NC(=O)NN3CCCCCC3)cc2)no1 :: 5
CC(F)(Cl)Cl :: 5
Oc1ccc(-c2ccccc2)cc1 :: 5
Cc1ccc2oc(C3(Cn4ccnc4)OCCO3)cc2c1 :: 4
NC(=O)c1ccc[n+]([C@@H]2O[C@H](COP(=O)([O-])OP(=O)(O)OC[C@H]3O[C@@H](n4cnc5c(N)ncnc54)[C@H](O)[C@@H]3O)[C@@H](O)[C@H]2O)c1 :: 5
COc1ccccc1NC(=O)c1cc2ccccc2c(N=Nc2ccc(C(N)=O)cc2)c1O :: 5
CCC(C)CCCC(C)CCCC(C)C (centres undefined) :: 5
COC(=O)c1ccc2c(C3CCCC3)cn(C)c2c1 :: 5
Cc1nc2ncnn2c(C)c1Cc1ccc(-c2ccccc2-c2nn[nH]n2)cc1 :: 4

====

assay: GHS categories as the set defines them, by LD50: 1 up to 5, 2 up to 50, 3 up to 300, 4 up to 2000, 5 above 2000 mg/kg; settings: rat; in vivo; po
GHS category overview
property measured: GHS category

CCOC(=O)C(=O)Nc1cc(OC)nc(OC)n1 :: 4
CCOC(=O)C(F)F :: 5
NCCCCCCCCCCCC(=O)O :: 5
CCCCOC(=O)C(C)C :: 5
O=c1oc2ccc(Cl)cc2n1CO :: 4
CCCCOC(=O)C(=O)Nc1cccc(-c2nnn[nH]2)c1 :: 5
C=CC(=O)OCCOCC(CC)(COCCOC(=O)C=C)COCCOC(=O)C=C :: 5

====

assay: rat acute oral toxicity; conditions: in vivo
property measured: log10(LD50) (log10 of the value in mg/kg)

CCCCC(Cc1cc(C(C)(C)C)c(O)c(C(C)(C)C)c1)(C(=O)OC1CC(C)(C)N(C)C(C)(C)C1)C(=O)OC1CC(C)(C)N(C)C(C)(C)C1 :: 3.17
O=C(OCC1CCC2OC2C1)C1CCC2OC2C1 (configuration not stated) :: 3.65
O=CCCCC=O :: 2.13
COP(=O)(NC(C)=O)SC (configuration not stated) :: 2.85
CCCCCC1CCC(=O)O1 (configuration not stated) :: 3.82
C=C(C)C(=O)OCc1ccccc1 :: 3.60
CC(C#N)CCC#N (configuration not stated) :: 2.23

====

Experiment: GHS categories as the set defines them, by LD50: 1 up to 5, 2 up to 50, 3 up to 300, 4 up to 2000, 5 above 2000 mg/kg
Settings: rat; in vivo; po
Description: […]The data set underlying the modeling effort for this project was initially compiled by NICEATM and U.S. EPA’s CCTE. Briefly, LD50 data were collected from rat acute oral systemic toxicity tests, including limit tests, ranges/confidence intervals, and discrete LD50 values. The full data set included 21,200 LD50 entries for 15,688 substances. […]
property measured: GHS category

CN(C)c1ccc(NC(=O)CCCSc2nnnn2C)cc1 :: 4
CS(=O)(=O)c1ccc(F)c(C(=O)O)c1 :: 5
CC(C)COC(=O)OCN1C(=O)CN(CCN2CC(=O)N(COC(=O)OCC(C)C)C(=O)C2)CC1=O :: 5
CC(=O)OC1CN(C)C(=O)N1c1cc(C(C)(C)C)on1 (stereo not given) :: 4
CN[C@@H]1[C@@H](O)[C@@H](O[C@@H]2[C@@H](O)[C@H](O[C@H]3O[C@H](CN)[C@@H](O)[C@H](O)[C@H]3O)[C@@H](N)C[C@H]2NC(=O)C(O)CN)OC[C@]1(C)O (stereo not given in full) :: 5
CCCCC(=O)N(Cc1ccc(-c2ccccc2-c2nn[nH]n2)cc1)[C@H](C(=O)OCc1ccccc1)C(C)C :: 4
Cc1cc(C(=O)Nc2cccc(C(F)(F)F)c2)n[nH]1 :: 5
CCCCCCCCCCCCCCCC(=O)OC(C)C :: 5
C[N+](C)(C)CC(=O)[O-] :: 5
CNc1ccc(C(=O)c2ccc(Cl)cc2)cc1O :: 5

====

test: rat acute oral toxicity; conditions: in vivo
Param label: returns yes when LD50 < 1000 mg/kg, returns no otherwise, including exact equality.

CCNc1nc(Cl)nc(NC(C)(C)C)n1 :: no
CC#N :: no
CN(C)CC/C=C1\c2ccccc2Sc2ccc(Cl)cc21 :: yes
OCCCl :: yes
CC(=O)OO :: yes
OC1CCCCC1 :: no
CCc1ccccc1 :: no
O=C=NCc1cccc(CN=C=O)c1 :: no
CC(C)=CCC/C(C)=C/CO :: no
O=[N+]([O-])c1ccc(Cl)cc1Cl :: yes
O=[N+]([O-])c1ccc(Cl)c(Cl)c1 :: yes
CCCCCCCCCCCCCCCCCC[N+](C)(C)C :: yes
Oc1ccc(Cl)cc1Cl :: yes
CC(=O)C=C(C)C :: yes
Cc1cccc([N+](=O)[O-])c1C :: no
Cc1ccccc1O :: yes

====

Experiment: GHS categories as the set defines them, by LD50: 1 up to 5, 2 up to 50, 3 up to 300, 4 up to 2000, 5 above 2000 mg/kg
Conditions: rat; in vivo; po
Source text: […]The data set underlying the modeling effort for this project was initially compiled by NICEATM and U.S. EPA’s CCTE. Briefly, LD50 data were collected from rat acute oral systemic toxicity tests, including limit tests, ranges/confidence intervals, and discrete LD50 values. The full data set included 21,200 LD50 entries for 15,688 substances. […]
property measured: GHS category

NC(=S)NS(=O)(=O)c1ccc(N)cc1 :: 5
CCCCCCCCCCCCCCC(C)c1cc(C)cc(C)c1O (configuration not stated) :: 5
CCCC(C)O (configuration not stated) :: 5
CCCC(=O)c1ccc2[nH]c(=O)oc2c1 :: 5
CCSC(=O)/C=C(C)/C=C/CC(C)CCCC(C)(C)OC (configuration not stated) :: 5
CCCCNC(=O)c1cnc2cccc(C)n2c1=O :: 3
Cc1cc(NC(=O)C2=C(O)c3ccccc3S(=O)(=O)N2C)no1 :: 5
